Assignment: determine reported OD 450 nm for the given binders.
# measurement.target: T1, CEACAM1 antigen (Sino Biological, Inc.) (UniProt P13688 35-428)
# T1 construct: Bought antigen coated on the ELISA plate; construct not described; also called CEACAM1 (CD66a) antigen; CD66a
# T1 sequence (looked up): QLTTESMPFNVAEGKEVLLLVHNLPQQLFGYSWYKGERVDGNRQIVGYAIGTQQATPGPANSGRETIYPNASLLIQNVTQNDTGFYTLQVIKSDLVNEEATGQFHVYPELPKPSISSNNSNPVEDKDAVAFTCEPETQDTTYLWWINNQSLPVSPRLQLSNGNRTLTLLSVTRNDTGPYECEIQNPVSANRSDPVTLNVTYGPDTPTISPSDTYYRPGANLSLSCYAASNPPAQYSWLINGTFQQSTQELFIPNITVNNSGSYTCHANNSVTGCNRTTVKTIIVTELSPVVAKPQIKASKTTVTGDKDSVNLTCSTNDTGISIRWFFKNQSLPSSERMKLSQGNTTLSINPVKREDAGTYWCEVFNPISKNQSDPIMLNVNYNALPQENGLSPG
# procedure.text: ELISA, coated CEACAM1 100 ng/well, antibody 1.52 ng/ml
Give bare numbers, in OD.

binder | OD 450 nm / OD
recombinant humanized anti-CD66c antibody Protein ID 3007 (Vk7 + VH6) (antibody, human IgG1, V domains shown, also called hu 3007; #43) VH: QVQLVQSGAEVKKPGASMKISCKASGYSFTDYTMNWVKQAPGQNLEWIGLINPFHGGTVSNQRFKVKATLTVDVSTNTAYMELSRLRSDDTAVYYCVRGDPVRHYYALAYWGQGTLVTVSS VL: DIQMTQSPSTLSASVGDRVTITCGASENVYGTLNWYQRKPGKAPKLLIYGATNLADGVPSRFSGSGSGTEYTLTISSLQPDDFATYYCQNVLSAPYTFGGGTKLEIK | 0.18
recombinant humanized anti-CD66c antibody Protein ID 2938 (Vk5 + VH7) (antibody, human IgG1, V domains shown, also called hu 2938) VH: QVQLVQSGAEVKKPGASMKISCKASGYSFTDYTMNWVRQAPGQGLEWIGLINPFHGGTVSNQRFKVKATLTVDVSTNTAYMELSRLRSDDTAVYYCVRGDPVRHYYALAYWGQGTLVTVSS VL: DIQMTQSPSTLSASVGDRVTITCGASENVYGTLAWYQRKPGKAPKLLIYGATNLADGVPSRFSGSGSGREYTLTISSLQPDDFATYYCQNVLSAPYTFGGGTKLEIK | 0.05
recombinant humanized anti-CD66c antibody Protein ID 3058 (Vk8 + VH11) (antibody, human IgG1, V domains shown, also called hu 3058; #86) VH: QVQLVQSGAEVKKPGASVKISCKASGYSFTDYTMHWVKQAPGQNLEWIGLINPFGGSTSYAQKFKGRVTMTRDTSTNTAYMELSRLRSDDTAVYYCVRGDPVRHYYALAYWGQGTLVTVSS VL: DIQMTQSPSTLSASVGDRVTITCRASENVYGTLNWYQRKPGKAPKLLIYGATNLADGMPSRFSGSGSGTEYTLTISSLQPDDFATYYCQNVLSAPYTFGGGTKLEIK | 0.05

Quick one: give me OD 450 nm for each item below, same order please.
1. anti-CD66c chimeric antibody 8F5 (antibody, human IgG1, V domains shown, also called chimeric 8F5 antibody; chi 8F5) VH: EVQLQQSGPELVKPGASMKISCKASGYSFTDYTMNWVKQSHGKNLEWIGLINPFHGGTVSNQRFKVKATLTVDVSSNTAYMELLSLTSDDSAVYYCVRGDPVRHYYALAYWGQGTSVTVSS VL: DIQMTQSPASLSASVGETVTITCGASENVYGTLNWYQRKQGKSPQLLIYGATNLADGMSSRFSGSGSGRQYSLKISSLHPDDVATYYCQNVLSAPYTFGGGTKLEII
2. recombinant humanized anti-CD66c antibody Protein ID 3043 (Vk8 + VH6) (antibody, human IgG1, V domains shown, also called hu 3043; #71) VH: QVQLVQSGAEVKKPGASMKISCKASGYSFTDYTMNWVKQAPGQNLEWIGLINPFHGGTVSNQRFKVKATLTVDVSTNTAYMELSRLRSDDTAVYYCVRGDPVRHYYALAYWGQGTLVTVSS VL: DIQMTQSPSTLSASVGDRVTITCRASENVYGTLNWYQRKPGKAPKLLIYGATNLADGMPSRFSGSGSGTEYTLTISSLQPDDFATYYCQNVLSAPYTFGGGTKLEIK

(A)
0.16
0.16
